The reported measurements were obtained from patent US6407106B1.

Below, each entry is listed with its recorded pEC50.
target: NK-1 receptors (Cavia porcellus, UniProt P30547); construct: isolated ring preparations, kept in an oxygenated nutrient solution, of the aortas of Pirbright-White guinea pigs; assay: Functional NK-1 antagonism on isolated guinea pig aorta rings (inhibition of Substance P-induced relaxation); settings: half maximum inhibition of relaxation of tone caused by 0.01 μmol Substance P; phenylephrine-tonicised guinea pig aorta
Sequence (P30547 whole entry): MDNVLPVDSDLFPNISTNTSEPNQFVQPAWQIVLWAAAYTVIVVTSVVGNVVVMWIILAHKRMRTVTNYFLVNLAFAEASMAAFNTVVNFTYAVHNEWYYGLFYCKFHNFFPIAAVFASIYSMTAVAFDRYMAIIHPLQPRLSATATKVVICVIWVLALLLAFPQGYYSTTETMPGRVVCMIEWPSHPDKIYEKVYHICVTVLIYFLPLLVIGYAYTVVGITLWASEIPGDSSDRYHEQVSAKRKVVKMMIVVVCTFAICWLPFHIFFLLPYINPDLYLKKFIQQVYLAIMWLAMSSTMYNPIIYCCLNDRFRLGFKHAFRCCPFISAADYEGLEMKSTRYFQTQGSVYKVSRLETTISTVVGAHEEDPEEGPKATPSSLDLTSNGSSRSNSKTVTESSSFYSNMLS
pEC50: −log10 of the molar value.

STRUCTURE_SMILES_STRING	TARGET_UNDER_TEST	pEC50
CC(C)N(Cc1n[nH]nc1CN1CCN(C(=O)c2cc(C(F)(F)F)cc(C(F)(F)F)c2)[C@H](Cc2c[nH]c3ccccc23)C1)C(C)C	NK-1 receptors (Cavia porcellus, UniProt P30547)	8.90
Cn1cc(C[C@@H]2CN(Cc3n[nH]nc3CN3CCOCC3)CCN2C(=O)c2cc(C(F)(F)F)cc(C(F)(F)F)c2)c2ccccc21	NK-1 receptors (Cavia porcellus, UniProt P30547)	8.40
O=C(c1cc(C(F)(F)F)cc(C(F)(F)F)c1)N1CCN(Cc2n[nH]nc2CN2CCOCC2)C[C@H]1Cc1c[nH]c2ccccc12	NK-1 receptors (Cavia porcellus, UniProt P30547)	9.00
